# test name: IV pharmacokinetics in Sprague Dawley rats
# Type: in vivo
# reported conditions: Sprague-Dawley, rat, in vivo, iv, 2 mg/kg, normal saline
half-life: recorded values
Use h as the unit, but write only the number.

If you can, please state the reported half-life value of O=C1NCCCCC12CCCNC2 (single isomer, unassigned) [CF, 2,8-diazaspiro[5.6]dodecan-7-one] .
1.8

---

# assay target: NMDAR2D (Homo sapiens, UniProt O15399)
# Construct: expressed in transfected cells; host or cells: HEK cells (membrane extract)
# Sequence (O15399 28-1336, species assumed, other chains not shown): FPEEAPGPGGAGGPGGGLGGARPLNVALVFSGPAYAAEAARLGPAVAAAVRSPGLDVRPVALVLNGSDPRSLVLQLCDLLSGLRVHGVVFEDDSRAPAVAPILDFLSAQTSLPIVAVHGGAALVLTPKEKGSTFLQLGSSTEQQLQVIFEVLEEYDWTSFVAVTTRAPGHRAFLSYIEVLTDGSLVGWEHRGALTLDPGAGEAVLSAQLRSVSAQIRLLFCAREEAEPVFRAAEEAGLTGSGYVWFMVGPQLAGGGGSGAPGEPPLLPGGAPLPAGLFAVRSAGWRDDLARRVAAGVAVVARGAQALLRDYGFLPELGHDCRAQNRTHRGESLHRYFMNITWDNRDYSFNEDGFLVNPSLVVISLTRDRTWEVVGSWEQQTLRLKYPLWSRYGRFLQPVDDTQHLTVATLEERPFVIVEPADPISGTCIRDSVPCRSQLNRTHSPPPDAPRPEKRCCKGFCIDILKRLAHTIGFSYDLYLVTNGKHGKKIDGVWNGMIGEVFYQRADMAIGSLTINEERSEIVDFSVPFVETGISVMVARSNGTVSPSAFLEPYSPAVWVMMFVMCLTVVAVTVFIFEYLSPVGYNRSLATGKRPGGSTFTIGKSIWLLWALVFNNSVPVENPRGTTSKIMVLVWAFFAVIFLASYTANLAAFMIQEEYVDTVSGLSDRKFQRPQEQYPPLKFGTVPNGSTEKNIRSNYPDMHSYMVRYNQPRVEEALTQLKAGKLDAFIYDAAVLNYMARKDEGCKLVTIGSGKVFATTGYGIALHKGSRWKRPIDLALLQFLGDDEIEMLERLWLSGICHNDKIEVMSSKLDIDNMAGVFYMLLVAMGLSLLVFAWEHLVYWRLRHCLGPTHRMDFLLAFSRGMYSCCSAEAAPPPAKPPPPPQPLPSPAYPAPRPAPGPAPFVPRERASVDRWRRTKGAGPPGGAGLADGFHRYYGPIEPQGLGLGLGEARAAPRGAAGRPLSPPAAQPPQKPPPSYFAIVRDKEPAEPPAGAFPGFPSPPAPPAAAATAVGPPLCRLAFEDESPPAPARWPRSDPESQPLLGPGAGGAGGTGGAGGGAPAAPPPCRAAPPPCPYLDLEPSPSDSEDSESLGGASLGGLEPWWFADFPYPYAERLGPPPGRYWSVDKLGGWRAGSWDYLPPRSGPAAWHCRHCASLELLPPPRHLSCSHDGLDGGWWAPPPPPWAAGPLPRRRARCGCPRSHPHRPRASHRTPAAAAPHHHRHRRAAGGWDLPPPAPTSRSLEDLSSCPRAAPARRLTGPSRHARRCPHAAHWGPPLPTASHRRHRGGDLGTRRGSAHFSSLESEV
# test name: NMDAR agonist assay, [3H]MK-801 binding, NMDAR2D expressing HEK cell membranes
# Assay type: biochemical
# reported conditions: 50 μM glutamate; relative to 1 mM glycine
result type: NMDAR2D A: % maximal [3H]MK-801 binding relative to 1 mM glycine

For orientation, consider the following solved cases.
molecule: O=C1NCCCC[C@@]12CCCN2 [AU-2, (R)-1,7-diazaspiro[4.6]undecan-6-one]
assay target: NMDAR2D (Homo sapiens, UniProt O15399)
readout value: + (<100%=+)
//
molecule: CC(C)(C)OC(=O)N1CCCC12CCCNC2=O (single isomer, unassigned) [EV-2]
assay target: NMDAR2D (Homo sapiens, UniProt O15399)
readout value: + (<100%=+)
//
molecule: O=C1NCC=CC[C@]12CCCN2 [GA, (R)-1,7-diazaspiro[4.6]undec-9-en-6-one]
assay target: NMDAR2D (Homo sapiens, UniProt O15399)
readout value: + (<100%=+)
//
molecule: CC(C)(C)OC(=O)N1CCCCCC12CNC2=O (single isomer, unassigned) [EI-1]
assay target: NMDAR2D (Homo sapiens, UniProt O15399)
readout value: + (<100%=+)
//
molecule: O=C1NCCCC[C@]12CCCN2 [AU-1, (S)-1,7-diazaspiro[4.6]undecan-6-one]
assay target: NMDAR2D (Homo sapiens, UniProt O15399)
readout value: 0%

Would you mind telling me what NMDAR2D A: % maximal [3H]MK-801 binding relative to 1 mM glycine value was observed for CC(C)(C)OC(=O)N1CCCC12CCCNC2=O (single isomer, unassigned) [EV-1] ?
+ (<100%=+)

Reference for the values: patent US20210047324A1
